test: Drug uptake in human U-87 MG cells expressing OATPIC1 assessed as Vmax at 200 uM incubated for 30 mins by Michaelis-Menten analysis; type: ADME, cell-based; settings: u-87mg atcc, 0.5 h
readout_kind: Vmax (nmol/min/mg)
A number alone suffices; assume nmol/min/mg.

**Q:** Sample CC(C(=O)Oc1c(I)cc(C[C@H](N)C(=O)O)cc1I)c1cccc(C(=O)c2ccccc2)c1 (stereo partly specified) — what was its Vmax?
**A:** 1.27

----------
experiment: Prodrug conversion in human U-87 MG cells expressing OATPIC1 assessed as OATPIC1 mediated drug release at 100 uM incubated for 30 mins by HPLC analysis; type: ADME, cell-based; settings: u-87mg atcc, 0.5 h
readout_kind: Drug metabolism

Known Drug metabolism results, listed for orientation:
| compound | Drug metabolism |
| --- | --- |
| CC(C(=O)Oc1c(I)cc(C[C@H](N)C(=O)O)cc1I)c1cccc(C(=O)c2ccccc2)c1 (stereo not given in full) | Metabolite_Detected |
| COc1ccc2cc([C@H](C)C(=O)Oc3c(I)cc(Oc4c(I)cc(C[C@H](N)C(=O)O)cc4I)cc3I)ccc2c1 | Metabolite_Detected |
| CC(C(=O)Oc1c(I)cc(Oc2c(I)cc(C[C@H](N)C(=O)O)cc2I)cc1I)c1ccc(-c2ccccc2)c(F)c1 (stereo not given in full) | Metabolite_Detected |
| COc1ccc2cc([C@H](C)C(=O)Oc3c(I)cc(C[C@H](N)C(=O)O)cc3I)ccc2c1 | Metabolite_Detected |

**Q:** Sample N[C@@H](Cc1cc(I)c(OC(=O)c2ccccc2O)c(I)c1)C(=O)O — what was its Drug metabolism?
**A:** Metabolite_Detected

----------
assay: Drug uptake in mouse Astrocyte cells expressing OATPIC4/5/6 at 100 uM incubated for 30 mins in presence of naringin by liquid scintillation counter analysis; assay type: ADME, cell-based; settings: 0.5 h
readout_kind: Drug uptake

| compound | measured |
| --- | --- |
| CC(C(=O)Oc1c(I)cc(Oc2c(I)cc(C[C@H](N)C(=O)O)cc2I)cc1I)c1ccc(-c2ccccc2)c(F)c1 (some centres undefined) | Not Active |
| N[C@@H](Cc1cc(I)c(Oc2cc(I)c(OC(=O)c3ccccc3O)c(I)c2)c(I)c1)C(=O)O | Not Active |
| C[C@]12CC[C@@H]3c4ccc(OS(=O)(=O)O)cc4CC[C@H]3[C@@H]1CCC2=O [ESTRONE SULFURIC ACID] | Not Active |
| COc1ccc2cc([C@H](C)C(=O)Oc3c(I)cc(C[C@H](N)C(=O)O)cc3I)ccc2c1 | Active |
| N[C@@H](Cc1cc(I)c(OC(=O)c2ccccc2O)c(I)c1)C(=O)O | Not Active |

**Q:** Sample CC(C(=O)Oc1c(I)cc(C[C@H](N)C(=O)O)cc1I)c1cccc(C(=O)c2ccccc2)c1 (some centres undefined) — what was its Drug uptake?
**A:** Not Active

**Q:** Sample CC(C(=O)Oc1c(I)cc(C[C@H](N)C(=O)O)cc1I)c1ccc(-c2ccccc2)c(F)c1 (some centres undefined) — what was its Drug uptake?
**A:** Not Active

**Q:** Sample COc1ccc2cc([C@H](C)C(=O)Oc3c(I)cc(Oc4c(I)cc(C[C@H](N)C(=O)O)cc4I)cc3I)ccc2c1 — what was its Drug uptake?
**A:** Active

**Q:** Sample CC(C(=O)Oc1c(I)cc(Oc2c(I)cc(C[C@H](N)C(=O)O)cc2I)cc1I)c1cccc(C(=O)c2ccccc2)c1 (some centres undefined) — what was its Drug uptake?
**A:** Not Active

----------
experiment: Prodrug conversion in human U-87 MG cells expressing OATPIC1 assessed as OATPIC1 mediated drug release at 100 uM incubated for 30 mins by HPLC analysis; type: ADME, cell-based; conditions: u-87mg atcc, 0.5 h
readout_kind: Drug metabolism

| compound | measured |
| --- | --- |
| CC(C(=O)Oc1c(I)cc(Oc2c(I)cc(C[C@H](N)C(=O)O)cc2I)cc1I)c1cccc(C(=O)c2ccccc2)c1 (stereo partly drawn) | Metabolite_Detected |
| CC(C(=O)Oc1c(I)cc(C[C@H](N)C(=O)O)cc1I)c1ccc(-c2ccccc2)c(F)c1 (stereo partly drawn) | Metabolite_Detected |
| N[C@@H](Cc1cc(I)c(Oc2cc(I)c(OC(=O)c3ccccc3O)c(I)c2)c(I)c1)C(=O)O | Metabolite_Detected |

----------
assay: Drug uptake in human U-87 MG cells expressing OATPIC1 at 100 uM incubated for 30 mins in presence of flufenamic acid by HPLC analysis; assay type: ADME, cell-based; conditions: u-87mg atcc, 0.5 h
readout_kind: Drug uptake

| compound | Drug uptake |
| --- | --- |
| COc1ccc2cc([C@H](C)C(=O)Oc3c(I)cc(C[C@H](N)C(=O)O)cc3I)ccc2c1 | Active |
| CC(C(=O)Oc1c(I)cc(C[C@H](N)C(=O)O)cc1I)c1cccc(C(=O)c2ccccc2)c1 (some centres undefined) | Active |
| CC(C(=O)Oc1c(I)cc(Oc2c(I)cc(C[C@H](N)C(=O)O)cc2I)cc1I)c1cccc(C(=O)c2ccccc2)c1 (some centres undefined) | Not Active |
| CC(C(=O)Oc1c(I)cc(Oc2c(I)cc(C[C@H](N)C(=O)O)cc2I)cc1I)c1ccc(-c2ccccc2)c(F)c1 (some centres undefined) | Not Active |
| N[C@@H](Cc1cc(I)c(Oc2cc(I)c(OC(=O)c3ccccc3O)c(I)c2)c(I)c1)C(=O)O | Active |

**Q:** Sample CC(C(=O)Oc1c(I)cc(C[C@H](N)C(=O)O)cc1I)c1ccc(-c2ccccc2)c(F)c1 (some centres undefined) — what was its Drug uptake?
**A:** Not Active

**Q:** Sample COc1ccc2cc([C@H](C)C(=O)Oc3c(I)cc(Oc4c(I)cc(C[C@H](N)C(=O)O)cc4I)cc3I)ccc2c1 — what was its Drug uptake?
**A:** Active

**Q:** Sample N[C@@H](Cc1cc(I)c(Oc2cc(I)c(O)c(I)c2)c(I)c1)C(=O)O [LEVOTHYROXINE] — what was its Drug uptake?
**A:** Not Active

**Q:** Sample N[C@@H](Cc1cc(I)c(OC(=O)c2ccccc2O)c(I)c1)C(=O)O — what was its Drug uptake?
**A:** Active

----------
assay: Drug uptake in human U-87 MG cells expressing OATPIC1 at 100 uM incubated for 30 mins in presence of diclofenac by HPLC analysis; assay type: ADME, cell-based; details: u-87mg atcc, 0.5 h
readout_kind: Drug uptake

Known Drug uptake results, listed for orientation:
| compound | readout_kind | measured |
| --- | --- | --- |
| CC(C(=O)Oc1c(I)cc(Oc2c(I)cc(C[C@H](N)C(=O)O)cc2I)cc1I)c1cccc(C(=O)c2ccccc2)c1 (some centres undefined) | Drug uptake | Not Active |
| N[C@@H](Cc1cc(I)c(Oc2cc(I)c(O)c(I)c2)c(I)c1)C(=O)O | Drug uptake | Not Active |
| N[C@@H](Cc1cc(I)c(Oc2cc(I)c(OC(=O)c3ccccc3O)c(I)c2)c(I)c1)C(=O)O | Drug uptake | Active |
| N[C@@H](Cc1cc(I)c(OC(=O)c2ccccc2O)c(I)c1)C(=O)O | Drug uptake | Active |
| CC(C(=O)Oc1c(I)cc(Oc2c(I)cc(C[C@H](N)C(=O)O)cc2I)cc1I)c1ccc(-c2ccccc2)c(F)c1 (some centres undefined) | Drug uptake | Not Active |

**Q:** Sample CC(C(=O)Oc1c(I)cc(C[C@H](N)C(=O)O)cc1I)c1cccc(C(=O)c2ccccc2)c1 (some centres undefined) — what was its Drug uptake?
**A:** Active

**Q:** Sample COc1ccc2cc([C@H](C)C(=O)Oc3c(I)cc(Oc4c(I)cc(C[C@H](N)C(=O)O)cc4I)cc3I)ccc2c1 — what was its Drug uptake?
**A:** Not Active

**Q:** Sample COc1ccc2cc([C@H](C)C(=O)Oc3c(I)cc(C[C@H](N)C(=O)O)cc3I)ccc2c1 — what was its Drug uptake?
**A:** Active

**Q:** Sample CC(C(=O)Oc1c(I)cc(C[C@H](N)C(=O)O)cc1I)c1ccc(-c2ccccc2)c(F)c1 (some centres undefined) — what was its Drug uptake?
**A:** Not Active
